Where do the numbers come from? From patent US8097759B2.

# System: NF-κB activation
# Assay Overview: NF-κB activation reporter assay (pNFκB-Luc luciferase) under TNF-α stimulation
# Assay type: cell-based, human
# Condition Info: Homo sapiens; Concentration of the agent: 1 μg/mL; HepG2 or HeLa cells, TNF-α 40 ng/ml, 4 hours; read-out: The rate of inhibitory activity against NF-κB activation (%)
Measured Endpoint: inhibition at 1 µg/mL (%)
Reply numerically in %, unit not repeated.

Worked set:
[[record]]
compound = "O=C(Nc1ccccc1)c1cc(Br)ccc1O [Compound 139]"
quantitative_result = -48.2

[[record]]
compound = "O=C(Nc1ccc(Cl)cc1)c1cc(Br)ccc1O [Compound 141]"
quantitative_result = 83.3

[[record]]
compound = "CCc1nc(NC(=O)c2cc(Br)ccc2O)sc1-c1ccccc1 [Compound 192]"
quantitative_result = 28.8

[[record]]
compound = "O=C(Nc1cccc(-c2ccccc2)c1)c1cc(Cl)ccc1O [Compound 165]"
quantitative_result = 88.2


So for COc1ccc(-c2ccccc2)cc1NC(=O)c1cc(Cl)ccc1O [Compound 166] , the logged inhibition at 1 µg/mL turned out to be 82.4

The recorded inhibition at 1 µg/mL for entry O=C(Nc1cc(-c2ccccc2)[nH]n1)c1cc(Br)ccc1O [Compound 36] equals 26.6

Measured inhibition at 1 µg/mL of O=C(Nc1cc(C(F)(F)F)cc(C(F)(F)F)c1)c1cc(C=Cc2ccccc2)ccc1O [Compound 63] : 95.5

// field: inhibition at 1 µg/mL; key: O=C(Nc1cc(C(F)(F)F)cc(C(F)(F)F)c1)c1cc(F)ccc1O [Compound 49] ; value = 81.5

Entry O=C(Nc1nc(C(F)(F)F)c(Br)s1)c1cc(Br)ccc1O [Compound 182] — recorded inhibition at 1 µg/mL = 85.3
